Data provenance: patent US20120225828A1

Could you please report measured MC-1 Emax (average; cAMP HBL) for the items listed next?
assayed-system: human melanocortin-1 receptor hMCR-1 expressed by the human melanoma cell line HBL (human, UniProt Q01726 1-317)
Sequence (Q01726 whole entry): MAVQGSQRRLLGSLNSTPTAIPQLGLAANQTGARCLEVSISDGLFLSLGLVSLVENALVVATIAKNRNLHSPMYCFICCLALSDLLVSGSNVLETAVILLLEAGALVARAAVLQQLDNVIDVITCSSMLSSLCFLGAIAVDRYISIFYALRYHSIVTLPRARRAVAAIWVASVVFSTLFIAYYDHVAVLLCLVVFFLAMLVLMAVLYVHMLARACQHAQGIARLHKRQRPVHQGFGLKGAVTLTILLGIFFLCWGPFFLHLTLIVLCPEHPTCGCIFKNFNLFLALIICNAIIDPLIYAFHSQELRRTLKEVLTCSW
experiment-description: cell-based or functional assay
Bridge positions count the residues as written; N and C are the ends. Square brackets hold non-standard residues; d marks the D form. Nle = CCCC[C@H](N)C(=O)O; Orn = NCCC[C@H](N)C(=O)O; Dab = NCC[C@H](N)C(=O)O
Write the number in % without appending the unit.

Consider Ac-[Nle]E[Dab][dF]R[Dab]W-NH2 (lactam 2-6) [Ac-Nle-cyclo(Glu-Dab-D-Phe-Arg-Dab)-Trp-NH2] . Its measured MC-1 Emax (average; cAMP HBL) is 108

Consider Ac-[Nle]EH[dF]G[Dab]W-NH2 (lactam 2-6; SMILES CCCC[C@H](NC(C)=O)C(=O)N[C@H]1CCC(=O)NCC[C@@H](C(=O)N[C@@H](Cc2c[nH]c3ccccc23)C(N)=O)NC(=O)CNC(=O)[C@@H](Cc2ccccc2)NC(=O)[C@H](Cc2c[nH]cn2)NC1=O) [Ac-Nle-cyclo(Glu-His-D-Phe-Gly-Dab)-Trp-NH2 (SEQ ID NO: 50)] . Its measured MC-1 Emax (average; cAMP HBL) is 59

Consider Ac-[Nle]E[Orn][dF]R[Dab]-NH2 (lactam 2-6; SMILES CCCC[C@H](NC(C)=O)C(=O)N[C@H]1CCC(=O)NCC[C@@H](C(N)=O)NC(=O)[C@H](CCCNC(=N)N)NC(=O)[C@@H](Cc2ccccc2)NC(=O)[C@H](CCCN)NC1=O) [Ac-Nle-cyclo(Glu-Orn-D-Phe-Arg-Dab)-NH2] . Its measured MC-1 Emax (average; cAMP HBL) is 102

Consider Ac-[Nle]EH[dF][Dab]-NH2 (lactam 2-5; SMILES CCCC[C@H](NC(C)=O)C(=O)N[C@H]1CCC(=O)NCC[C@@H](C(N)=O)NC(=O)[C@@H](Cc2ccccc2)NC(=O)[C@H](Cc2c[nH]cn2)NC1=O) [Ac-Nle-cyclo(Glu-His-D-Phe-Dab)-NH2] . Its measured MC-1 Emax (average; cAMP HBL) is 51
